test system: PCSK9 gene; assay: PCSK9 gRNA/SpCas9 editing in primary human hepatocytes (Tables 2, 4); type: cell-based; conditions: 2500 ng/RNA/mL; SpCas9 mRNA MS002 1:1 by weight
m = 2'-O-methyl; r = 2'-OH (RNA)
Overview of reported Human Primary Hepatocyte Editing % 2500 across a group of molecules:
EXPERIMENTAL READOUT: Human Primary Hepatocyte Editing % 2500

# MOLECULE, RESULT
measured = [
    ("GA193: PCSK9 gRNA; protospacer GGGGCTGGTATTCATCCGCC (SEQ ID NO: 187) (nucleic acid, sugars from the 5' end m3 r94 m3, linkages s3 o93 s3 (s phosphorothioate, o phosphodiester), T or U not given here) guide: GGGGCUGGUAUUCAUCCGCCGUUUUAGAGCUAGAAAUAGCAAGUUAAAAUAAGGCUAGUCCGUUAUCAACUUGAAAAAGUGGCACCGAGUCGGUGCUUUU", "35.77%"),
    ("GA241: PCSK9 gRNA; protospacer TGCTGCTGCCCCTGGCGGGT (SEQ ID NO: 234) (nucleic acid, sugars from the 5' end m3 r94 m3, linkages s3 o93 s3 (s phosphorothioate, o phosphodiester), T or U not given here) guide: UGCUGCUGCCCCUGGCGGGUGUUUUAGAGCUAGAAAUAGCAAGUUAAAAUAAGGCUAGUCCGUUAUCAACUUGAAAAAGUGGCACCGAGUCGGUGCUUUU", "5.39%"),
    ("GA177: PCSK9 gRNA; protospacer GGTCGCCACTCATCTTCACC (SEQ ID NO: 171) (nucleic acid, sugars from the 5' end m3 r94 m3, linkages s3 o93 s3 (s phosphorothioate, o phosphodiester), T or U not given here) guide: GGUCGCCACUCAUCUUCACCGUUUUAGAGCUAGAAAUAGCAAGUUAAAAUAAGGCUAGUCCGUUAUCAACUUGAAAAAGUGGCACCGAGUCGGUGCUUUU", "12.57%"),
    ("GA228: PCSK9 gRNA; protospacer CGGCTGTACCCACCCGCCAG (SEQ ID NO: 222) (nucleic acid, sugars from the 5' end m3 r94 m3, linkages s3 o93 s3 (s phosphorothioate, o phosphodiester), T or U not given here) guide: CGGCUGUACCCACCCGCCAGGUUUUAGAGCUAGAAAUAGCAAGUUAAAAUAAGGCUAGUCCGUUAUCAACUUGAAAAAGUGGCACCGAGUCGGUGCUUUU", "37.1%"),
    ("GA200: PCSK9 gRNA; protospacer CTAGGAGATACACCTCCACC (SEQ ID NO: 194) (nucleic acid, sugars from the 5' end m3 r94 m3, linkages s3 o93 s3 (s phosphorothioate, o phosphodiester), T or U not given here) guide: CUAGGAGAUACACCUCCACCGUUUUAGAGCUAGAAAUAGCAAGUUAAAAUAAGGCUAGUCCGUUAUCAACUUGAAAAAGUGGCACCGAGUCGGUGCUUUU", "5.31%"),
]

Values compiled from patent US20250152746A1.
